- TEST DESCRIPTION: Cytotoxicity against human LCC-6 cells expressing P-glycoprotein after 72 hrs
- Type: functional, cell-based
- REPORTED CONDITIONS: LCC-6, 72 h
MEASURED PROPERTY: pIC50
pIC50 here: minus log base 10 of the concentration, concentration in moles per litre.

Examples with their reported pIC50 follow.
# TEST SMILES, pIC50
records = [
    ("COC(=O)O[C@H]1C(=O)[C@@]2(C)[C@H]([C@H](OC(=O)c3cccc(Cl)c3)[C@]3(O)C[C@H](OC(=O)[C@H](O)[C@@H](NC(=O)OC(C)(C)C)C(F)F)C(C)=C1C3(C)C)[C@]1(OC(C)=O)CO[C@@H]1C[C@@H]2O", 8.74),
    ("COC(=O)O[C@H]1C(=O)[C@@]2(C)[C@H]([C@H](OC(=O)c3cccc(N=[N+]=[N-])c3)[C@]3(O)C[C@H](OC(=O)[C@H](O)[C@@H](NC(=O)OC(C)(C)C)C(F)F)C(C)=C1C3(C)C)[C@]1(OC(C)=O)CO[C@@H]1C[C@@H]2O", 8.69),
    ("CCC(=O)O[C@H]1C(=O)[C@@]2(C)[C@H]([C@H](OC(=O)c3cccc(Cl)c3)[C@]3(O)C[C@H](OC(=O)[C@H](O)[C@@H](NC(=O)OC(C)(C)C)C(F)F)C(C)=C1C3(C)C)[C@]1(OC(C)=O)CO[C@@H]1C[C@@H]2O", 8.33),
]

Input line: Report measured pIC50; entry is COC(=O)O[C@H]1C(=O)[C@@]2(C)[C@H]([C@H](OC(=O)c3cccc(F)c3)[C@]3(O)C[C@H](OC(=O)[C@H](O)[C@@H](NC(=O)OC(C)(C)C)C(F)F)C(C)=C1C3(C)C)[C@]1(OC(C)=O)CO[C@@H]1C[C@@H]2O
Output line: 7.90

====

- Test system: MCF7
- TEST DESCRIPTION: Resistance factor, ratio of IC50 for P-glycoprotein deficient wild type human MCF7 cells to IC50 for multidrug-resistant human NCI/ADR cells
- Type: functional
MEASURED PROPERTY: Ratio

Examples with their reported Ratio follow.
# TEST SMILES, Ratio
measured = [
    ("CCC(=O)O[C@H]1C(=O)[C@@]2(C)[C@H]([C@H](OC(=O)c3cccc(OC)c3)[C@]3(O)C[C@H](OC(=O)[C@H](O)[C@H](C=C(C)C)NC(=O)C4CCCC4)C(C)=C1C3(C)C)[C@]1(OC(C)=O)CO[C@@H]1C[C@@H]2O", 32),
    ("CCC(=O)O[C@H]1C(=O)[C@@]2(C)[C@H]([C@H](OC(=O)c3cccc(OC)c3)[C@]3(O)C[C@H](OC(=O)[C@H](O)[C@H](C=C(C)C)NC(=O)OC(C)(C)C)C(C)=C1C3(C)C)[C@]1(OC(C)=O)CO[C@@H]1C[C@@H]2O", 0.92),
    ("CCC(=O)O[C@H]1C(=O)[C@@]2(C)[C@H]([C@H](OC(=O)c3ccccc3)[C@]3(O)C[C@H](OC(=O)[C@H](O)[C@H](CC(C)C)NC(=O)OC4CCCC4)C(C)=C1C3(C)C)[C@]1(OC(C)=O)CO[C@@H]1C[C@@H]2O", 6.8),
]

Now for the compound whose Ratio we want.
Input line: Report measured Ratio; entry is CCC(=O)O[C@H]1C(=O)[C@@]2(C)[C@H]([C@H](OC(=O)c3ccccc3)[C@]3(O)C[C@H](OC(=O)[C@H](O)[C@H](C=C(C)C)NC(=O)C4=CCCCC4)C(C)=C1C3(C)C)[C@]1(OC(C)=O)CO[C@@H]1C[C@@H]2O
Output line: 13

====

- System: A2780
- TEST DESCRIPTION: Cytotoxicity against human cisplatin-resistant A2780 cells after 72 hrs
- Format: functional, cell-based
- REPORTED CONDITIONS: A2780, 72 h
MEASURED PROPERTY: IC50
State the result as a value with its unit after it.

Examples with their reported IC50 follow.
# COMPOUND, MEASURED PROPERTY, MEASURED VALUE
rows = [
    ("CC(=O)O[C@@]1(C2/C(C)=C(/O)C(=O)C3=C(C)[C@@H](OC(=O)[C@H](O)[C@H](CC(C)C)NC(=O)OC(C)(C)C)C[C@@](O)([C@H]2OC(=O)c2ccccc2)C3(C)C)CO[C@@H]1CCO (some centres undefined)", "IC50", "16.8 nM"),
    ("CC(=O)O[C@@]1([C@@H]2/C(C)=C(/O)C(=O)C3=C(C)[C@@H](OC(=O)[C@H](O)[C@H](CC(C)C)NC(=O)OC(C)(C)C)C[C@@](O)([C@H]2OC(=O)c2cccc(F)c2)C3(C)C)CO[C@H]1CCO", "IC50", "11.8 nM"),
    ("CC(=O)O[C@H]1C(=O)[C@@]2(C)[C@H]([C@H](OC(=O)c3ccccc3)[C@]3(O)C[C@H](OC(=O)[C@H](O)[C@@H](NC(=O)c4ccccc4)c4ccccc4)C(C)=C1C3(C)C)[C@]1(OC(C)=O)CO[C@@H]1C[C@@H]2O", "IC50", "2.2 nM"),
]

Now for the compound whose IC50 we want.
Input line: GET IC50 where system = A2780 and item = CC(=O)O[C@@]1([C@@H]2/C(C)=C(/O)C(=O)C3=C(C)[C@@H](OC(=O)[C@H](O)[C@H](C=C(C)C)NC(=O)OC(C)(C)C)C[C@@](O)([C@H]2OC(=O)c2cccc(F)c2)C3(C)C)CO[C@@H]1CCO
Output line: 4.9 nM

====

- TEST DESCRIPTION: Cytotoxicity against human LCC-6 cells expressing P-glycoprotein after 72 hrs
- Format: functional, cell-based
- REPORTED CONDITIONS: LCC-6, 72 h
Below, each entry is listed with its recorded pIC50.
pIC50 here: minus log base 10 of the concentration, concentration in moles per litre.

# TEST SMILES, pIC50
measured = [
    ("CC(=O)O[C@@]12CO[C@@H]1C[C@H](O)[C@@]1(C)C(=O)[C@H](OC(=O)N(C)C)C3=C(C)[C@@H](OC(=O)[C@H](O)[C@@H](NC(=O)OC(C)(C)C)C(F)(F)F)C[C@@](O)([C@@H](OC(=O)c4cccc(N=[N+]=[N-])c4)[C@H]21)C3(C)C", 8.45),
]

Now for the compound whose pIC50 we want.
Input line: Report measured pIC50; entry is COC(=O)O[C@H]1C(=O)[C@@]2(C)[C@H]([C@H](OC(=O)c3cccc(OC)c3)[C@]3(O)C[C@H](OC(=O)[C@H](O)[C@@H](NC(=O)OC(C)(C)C)C(F)F)C(C)=C1C3(C)C)[C@]1(OC(C)=O)CO[C@@H]1C[C@@H]2O
Output line: 7.99

====

- TEST DESCRIPTION: Cytotoxicity against human LCC-6 cells expressing P-glycoprotein after 72 hrs
- Format: functional, cell-based
- REPORTED CONDITIONS: LCC-6, 72 h
MEASURED PROPERTY: pIC50
pIC50 here: minus log base 10 of the concentration, concentration in moles per litre.

# TEST SMILES, pIC50
measured = [
    ("CCC(=O)O[C@H]1C(=O)[C@@]2(C)[C@H]([C@H](OC(=O)c3cccc(N=[N+]=[N-])c3)[C@]3(O)C[C@H](OC(=O)[C@H](O)[C@@H](NC(=O)OC(C)(C)C)C(F)(F)F)C(C)=C1C3(C)C)[C@]1(OC(C)=O)CO[C@@H]1C[C@@H]2O", 8.59),
]

Input line: Report measured pIC50; entry is CCC(=O)O[C@H]1C(=O)[C@@]2(C)[C@H]([C@H](OC(=O)c3cccc(N=[N+]=[N-])c3)[C@]3(O)C[C@H](OC(=O)[C@H](O)[C@@H](NC(=O)OC(C)(C)C)C(F)F)C(C)=C1C3(C)C)[C@]1(OC(C)=O)CO[C@@H]1C[C@@H]2O
Output line: 8.94

====

- System: NCI-H460
- TEST DESCRIPTION: Cytotoxicity against human H460 cells after 72 hrs
- Assay type: functional, cell-based
- REPORTED CONDITIONS: NCI-H460, 72 h
MEASURED PROPERTY: pIC50
pIC50 here: minus log base 10 of the concentration, concentration in moles per litre.

Examples with their reported pIC50 follow.
# TEST SMILES, pIC50
rows = [
    ("CC(=O)O[C@H]1C(=O)[C@@]2(C)[C@H]([C@H](OC(=O)c3cccc(N=[N+]=[N-])c3)[C@]3(O)C[C@H](OC(=O)[C@H](O)[C@@H](NC(=O)OC(C)(C)C)C(F)F)C(C)=C1C3(C)C)[C@]1(OC(C)=O)CO[C@@H]1C[C@@H]2O", 9.32),
    ("COc1cccc(C(=O)O[C@H]2[C@@H]3[C@]4(OC(C)=O)CO[C@@H]4C[C@H](O)[C@@]3(C)C(=O)[C@H](OC(C)=O)C3=C(C)[C@@H](OC(=O)[C@H](O)[C@@H](NC(=O)OC(C)(C)C)C(F)F)C[C@]2(O)C3(C)C)c1", 9.42),
    ("CC(=O)O[C@@]12CO[C@@H]1C[C@H](O)[C@@]1(C)C(=O)[C@H](OC(=O)N(C)C)C3=C(C)[C@@H](OC(=O)[C@H](O)[C@@H](NC(=O)OC(C)(C)C)C(F)(F)F)C[C@@](O)([C@@H](OC(=O)c4cccc(Cl)c4)[C@H]21)C3(C)C", 9.38),
    ("COC(=O)O[C@H]1C(=O)[C@@]2(C)[C@H]([C@H](OC(=O)c3cccc(Cl)c3)[C@]3(O)C[C@H](OC(=O)[C@H](O)[C@@H](NC(=O)OC(C)(C)C)C(F)F)C(C)=C1C3(C)C)[C@]1(OC(C)=O)CO[C@@H]1C[C@@H]2O", 9.60),
    ("CCC(=O)O[C@H]1C(=O)[C@@]2(C)[C@H]([C@H](OC(=O)c3cccc(F)c3)[C@]3(O)C[C@H](OC(=O)[C@H](O)[C@@H](NC(=O)OC(C)(C)C)C(F)(F)F)C(C)=C1C3(C)C)[C@]1(OC(C)=O)CO[C@@H]1C[C@@H]2O", 9.23),
]

Input line: Report measured pIC50; entry is COc1cccc(C(=O)O[C@H]2[C@@H]3[C@]4(OC(C)=O)CO[C@@H]4C[C@H](O)[C@@]3(C)C(=O)[C@H](OC(=O)N(C)C)C3=C(C)[C@@H](OC(=O)[C@H](O)[C@@H](NC(=O)OC(C)(C)C)C(F)(F)F)C[C@]2(O)C3(C)C)c1
Output line: 9.46

Input line: Report measured pIC50; entry is CC(=O)O[C@H]1C(=O)[C@@]2(C)[C@H]([C@H](OC(=O)c3cccc(Cl)c3)[C@]3(O)C[C@H](OC(=O)[C@H](O)[C@@H](NC(=O)OC(C)(C)C)C(F)(F)F)C(C)=C1C3(C)C)[C@]1(OC(C)=O)CO[C@@H]1C[C@@H]2O
Output line: 9.30
